Catalogue of log10 IC50 readings, one per entry.
target: Tyrosine-protein kinase JAK1 (Homo sapiens, UniProt P23458); assay: Inhibition of N-terminal GST-fused human recombinant JAK1 (866 to 1154 residues) expressed in insect cells using FITC-C6-KKHTDDGYMPMSPGVA-NH2 as substrate by microfluidic capillary electrophoresis method
Sequence (P23458 whole entry, the tested form may be a part): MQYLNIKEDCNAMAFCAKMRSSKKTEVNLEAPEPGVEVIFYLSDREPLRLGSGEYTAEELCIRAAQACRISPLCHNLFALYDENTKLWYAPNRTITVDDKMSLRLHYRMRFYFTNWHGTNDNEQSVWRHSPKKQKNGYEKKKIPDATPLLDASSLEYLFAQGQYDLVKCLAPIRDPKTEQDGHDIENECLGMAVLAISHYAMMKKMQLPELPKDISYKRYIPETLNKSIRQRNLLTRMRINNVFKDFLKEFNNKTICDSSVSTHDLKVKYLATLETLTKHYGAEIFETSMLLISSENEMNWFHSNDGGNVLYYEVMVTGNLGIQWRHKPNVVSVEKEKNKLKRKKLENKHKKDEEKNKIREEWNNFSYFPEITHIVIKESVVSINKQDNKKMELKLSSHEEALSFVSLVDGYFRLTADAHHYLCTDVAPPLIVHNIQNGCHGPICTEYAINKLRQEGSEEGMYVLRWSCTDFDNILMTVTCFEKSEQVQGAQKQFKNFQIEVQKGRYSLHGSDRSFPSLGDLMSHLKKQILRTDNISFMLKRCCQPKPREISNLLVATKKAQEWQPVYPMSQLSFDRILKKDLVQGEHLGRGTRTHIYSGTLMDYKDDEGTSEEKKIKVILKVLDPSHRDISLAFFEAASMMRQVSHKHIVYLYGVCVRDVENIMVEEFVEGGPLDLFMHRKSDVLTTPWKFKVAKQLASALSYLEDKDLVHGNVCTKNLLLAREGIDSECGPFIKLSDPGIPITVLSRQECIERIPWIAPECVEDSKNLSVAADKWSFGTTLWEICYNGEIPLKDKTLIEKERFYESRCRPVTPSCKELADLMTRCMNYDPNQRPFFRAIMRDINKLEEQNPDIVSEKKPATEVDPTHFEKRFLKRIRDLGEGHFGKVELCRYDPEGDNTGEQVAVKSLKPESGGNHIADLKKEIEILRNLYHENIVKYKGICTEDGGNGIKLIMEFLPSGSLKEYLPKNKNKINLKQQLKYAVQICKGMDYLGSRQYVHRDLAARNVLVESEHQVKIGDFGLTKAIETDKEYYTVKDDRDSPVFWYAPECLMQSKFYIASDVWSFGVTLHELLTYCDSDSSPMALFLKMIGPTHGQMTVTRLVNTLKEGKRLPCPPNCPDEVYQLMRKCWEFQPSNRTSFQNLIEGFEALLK
measure.name: log10 IC50 (log10 of the value in nM)

molecule | endpoint.result
COCCNc1c(Cl)cnc2[nH]c(-c3ccc(OC)cc3)nc12 | 3.32
COc1ccc(-c2nc3c(NCC4CCN(C)CC4)c(C#N)cnc3[nH]2)cc1 | 3.65
COc1ccc(-c2nc3c(NCC4CCN(C)CC4)c(C(N)=O)cnc3[nH]2)cc1 | 2.99
COc1ccc(-c2nc3c(NCC4CCNCC4)c(Cl)cnc3[nH]2)c(F)c1 | 2.03
COc1ccc(-c2nc3c(NCC4CCNCC4)c(Cl)cnc3[nH]2)cc1OC | 0.69
COc1ccc(-c2nc3c(NCC4CCNCC4)c(Cl)cnc3[nH]2)cc1 | 1.23
COc1ccc(F)c(-c2nc3c(NCC4CCN(C)CC4)c(Cl)cnc3[nH]2)c1 | 2.44
COc1ccc(-c2nc3c(NCC4CCNCC4)c(Cl)cnc3[nH]2)c(C)c1 | 0.95
COc1ccc(-c2nc3c(NCC4CCNC4)c(Cl)cnc3[nH]2)cc1 (stereo not given) | 2.30
CN1CCC(CNc2c(Cl)cnc3[nH]c(-c4cccc(F)c4)nc23)CC1 | 2.92
COc1cccc(-c2nc3c(NCC4CCN(C)CC4)c(Cl)cnc3[nH]2)c1 | 2.44
COc1ccc(-c2nc3c(NCC4CCN(C)CC4)c(Br)cnc3[nH]2)cc1 | 2.25
COc1ccccc1-c1nc2c(NCC3CCN(C)CC3)c(Cl)cnc2[nH]1 | 4.09
COc1ccc(-c2nc3c(OCC4CCNCC4)c(Cl)cnc3[nH]2)cc1 | 2.25
COc1ccc(-c2nc3c(NCCO)c(Cl)cnc3[nH]2)cc1 | 3.72
COc1ccc(-c2nc3c(NC4CCN(C)CC4)c(Cl)cnc3[nH]2)cc1 | 2.75
COc1ccc(-c2nc3c(N(C)CC4CCNCC4)c(Cl)cnc3[nH]2)cc1 | 2.94
CN1CCC(CNc2c(Cl)cnc3[nH]c(-c4cccc(S(C)(=O)=O)c4)nc23)CC1 | 3.69
COc1ccc(-c2nc3c(NCC4CCN(C)CC4)c(Cl)cnc3[nH]2)cc1OC | 1.86
COc1ccc(-c2nc3c(NCC4CCCNC4)c(Cl)cnc3[nH]2)cc1 (stereo not given) | 2.14
CN1CCC(CNc2c(Cl)cnc3[nH]c(-c4ccc(S(C)(=O)=O)cc4)nc23)CC1 | 2.55
COc1ccc(F)c(-c2nc3c(NCC4CCNCC4)c(Cl)cnc3[nH]2)c1 | 1.69
COc1cc(F)c(-c2nc3c(NCC4CCNCC4)c(Cl)cnc3[nH]2)cc1OC | 1.34
COc1cc(F)c(-c2nc3c(NCC4CCNCC4)c(Cl)cnc3[nH]2)cc1F | 2.24
COc1ccc(-c2nc3c(NCC4CCN(C)CC4)c(Cl)cnc3[nH]2)cc1 | 2.50
COCCN1CCC(CNc2c(Cl)cnc3[nH]c(-c4ccc(OC)cc4)nc23)CC1 | 2.90
COc1ccc(-c2nc3c(NCC4CCN(C)CC4)c(Cl)cnc3[nH]2)c(C)c1 | 1.56
